# credit: patent US8450300B2

assay.details: Dose escalation study, single/multiple dose and loading dose regimens: pharmacokinetics
Assay type: in vivo, human
condition.details: human, in vivo, 1100 mg, Period 1 Day 1, single dose 1100 mg; read-out: AUC(0-24), mean
measurement.kind: AUC(0-t)
Answer shape: numeric part, then the unit.

Memo: CC(=O)O[C@H]1C[C@@]2(C)[C@@H](C[C@@H](O)[C@H]3[C@@]4(C)CC[C@@H](O)[C@@H](C)[C@@H]4CC[C@@]32C)/C1=C(\CCC=C(C)C)C(=O)O [CEM-102, Sodium fusidate] , reported AUC(0-t): 844 µg·h/mL
